The reported measurements were obtained from patent US8178668B2.

Structures can show the parent of a compound that is named as a salt.
Could you please report measured IC50 for the items listed next?

The reported IC50 value, RON (human) (Homo sapiens, UniProt Q04912), for Nc1ncc(-c2cnn(C3CCNCC3)c2)cc1-c1cc2c(-c3ccco3)ccc(F)c2cn1 reads 0.1 to 1 µM

The reported IC50 value, RON (human) (Homo sapiens, UniProt Q04912), for Nc1ncc(-c2cnn(C3CCNCC3)c2)cc1-c1cc2c(C(F)(F)F)cccc2cn1 [Example 18, trihydrochloride salt] reads 0.1 to 1 µM

The reported IC50 value, RON (human) (Homo sapiens, UniProt Q04912), for Nc1ncc(-c2cnn(C3CCNCC3)c2)cc1-c1cc2ccc(OC(F)(F)F)cc2cn1 [Example 14, trihydrochloride] reads 1 to 20 µM

The reported IC50 value, RON (human) (Homo sapiens, UniProt Q04912), for CC(C(=O)N1CCOCC1)n1cc(-c2cnc(N)c(-c3nc4ccccc4s3)c2)cn1 (stereo not shown) reads 1 to 20 µM
